Numbers sourced from DBAASP.

Reported MIC, Escherichia coli ATCC 25922.
Numbers only, in µM.

Known MIC results, listed for orientation:
IN: For the molecule shown here, "CC[C@H](C)[C@H](NC(=O)[C@H](CCCN=C(N)N)NC(=O)[C@H](CCC(N)=O)NC(=O)[C@@H](NC(=O)[C@@H](NC(=O)[C@H](CCCN=C(N)N)NC(=O)[C@@H](N)CCCCN)[C@@H](C)CC)C(C)C)C(=O)N[C@@H](CCCCN)C(=O)N[C@@H](CC(=O)O)C(=O)N[C@@H](Cc1ccccc1)C(=O)N[C@@H](CC(C)C)C(=O)N[C@@H](CCCCN)C(=O)O" , give the reported MIC.
OUT: 5

IN: Item "CC[C@H](C)[C@H](NC(=O)[C@@H](NC(=O)[C@H](CCCCN)NC(=O)[C@H](CC(C)C)NC(=O)[C@H](CC(C)C)NC(=O)CN)C(C)C)C(=O)N[C@@H](CCCCN)C(=O)N[C@H](C(=O)N[C@@H](CC(C)C)C(=O)N[C@@H](CC(C)C)C(N)=O)C(C)C" has what recorded MIC?
OUT: 25.6

IN: # lookup: MIC of "CC[C@H](C)[C@H](NC(=O)[C@H](CCCCN)NC(=O)[C@@H](NC(=O)[C@H](C)NC(=O)[C@H](CC(C)C)NC(=O)[C@H](CCCCN)NC(=O)[C@H](Cc1ccccc1)NC(=O)[C@H](CC(C)C)NC(=O)[C@H](C)NC(=O)CNC(=O)[C@H](Cc1ccccc1)NC(=O)[C@@H](N)Cc1ccccc1)[C@@H](C)O)C(=O)N[C@H](C(=O)N1CCC[C@H]1C(=O)N[C@@H](CO)C(=O)N[C@@H](CC(C)C)C(=O)N[C@@H](Cc1ccccc1)C(=O)N[C@@H](CCCN=C(N)N)C(=O)O)[C@@H](C)CC"
OUT: 12.1

IN: Quick one: MIC for "CC(C)C[C@H](NC(=O)[C@H](CCCCN)NC(=O)[C@H](CC(C)C)NC(=O)[C@H](CC(C)C)NC(=O)[C@H](CCCCN)NC(=O)[C@H](CCCCN)NC(=O)[C@H](Cc1cnc[nH]1)NC(=O)[C@H](CC(C)C)NC(=O)[C@H](CCCCN)NC(=O)[C@H](CC(C)C)NC(=O)[C@H](CC(C)C)NC(=O)[C@H](CCCCN)NC(=O)[C@H](CCCCN)NC(=O)[C@@H](N)CC(C)C)C(=O)N[C@@H](C)C(=O)NCC(=O)O" ?
OUT: 2.5

IN: Given "CC[C@H](C)[C@H](N)C(=O)N[C@@H](Cc1c[nH]c2ccccc12)C(=O)N[C@@H](CO)C(=O)N[C@@H](C)C(=O)N[C@H](C(=O)N[C@@H](Cc1c[nH]c2ccccc12)C(=O)N[C@@H](CO)C(=O)NCC(=O)N[C@H](C(=O)N[C@@H](CCCCN)C(=O)NCC(=O)N[C@@H](CC(C)C)C(=O)N[C@@H](CC(C)C)C(N)=O)[C@@H](C)CC)[C@@H](C)CC" , state its recorded MIC.
OUT: 15

// moving on: another record for MIC
IN: Quick check: MIC of "CSCC[C@H](NC(=O)[C@H](CCCN=C(N)N)NC(=O)[C@H](Cc1c[nH]c2ccccc12)NC(=O)[C@H](CCC(N)=O)NC(=O)[C@H](Cc1c[nH]c2ccccc12)NC(=O)[C@H](CCCN=C(N)N)NC(=O)[C@H](CCCN=C(N)N)NC(=O)[C@H](C)NC(=O)[C@H](CCCCN)NC(=O)[C@@H](N)Cc1ccccc1)C(=O)N[C@@H](CCCCN)C(=O)N[C@@H](CCCCN)C(=O)O" ?
OUT: 116

###

What follows is a record of MIC for Bacillus subtilis ATCC 23857.

IN: Query for Bacillus subtilis ATCC 23857: what MIC does the record show for CC[C@H](C)[C@H](NC(=O)CN)C(=O)N[C@H](C(=O)N[C@@H](C)C(=O)NCC(=O)N[C@H](C(=O)N[C@H](C(=O)N[C@@H](C)C(=O)N[C@@H](CCCCN)C(=O)N[C@H](C(=O)N[C@@H](CCCCN)C(=O)N[C@@H](CCCCN)C(N)=O)[C@@H](C)CC)[C@@H](C)CC)[C@@H](C)CC)[C@@H](C)CC [GIIAGIIAKIKK] ?
OUT: ≥ 32 µM

IN: For the record CC[C@H](C)[C@H](NC(=O)CN)C(=O)N[C@H](C(=O)N[C@@H](CCCN=C(N)N)C(=O)NCC(=O)N[C@H](C(=O)N[C@H](C(=O)N[C@@H](CCCCN)C(=O)N[C@H](C(=O)N[C@H](C(=O)N[C@@H](CCCCN)C(=O)N[C@@H](CCCN=C(N)N)C(N)=O)[C@@H](C)CC)[C@@H](C)CC)[C@@H](C)CC)[C@@H](C)CC)[C@@H](C)CC [GIIRGIIKIIKR] , what value of MIC is listed for Bacillus subtilis ATCC 23857?
OUT: 8 µM

# evaluate next
IN: Quick check: MIC on Bacillus subtilis ATCC 23857, item CC[C@H](C)[C@H](NC(=O)[C@H](CCCCN)NC(=O)[C@H](CCCCN)NC(=O)[C@H](C)NC(=O)[C@H](C)NC(=O)[C@H](C)NC(=O)[C@H](CC(C)C)NC(=O)[C@H](CC(C)C)NC(=O)[C@H](C)NC(=O)[C@H](CCCCN)NC(=O)[C@H](CC(C)C)NC(=O)[C@H](CC(N)=O)NC(=O)[C@@H](N)CC(C)C)C(=O)N[C@@H](CC(C)C)C(N)=O [LNLKALLAAAKKIL] ?
OUT: 8 µM

###

System: Staphylococcus aureus USA 100
Record form. Attribute: MIC. Fill in for each entry.

IN: For CC(C)C[C@H](NC(=O)[C@H](CCCCN)NC(=O)[C@H](CC(C)C)NC(=O)[C@H](CC(C)C)NC(=O)[C@H](CC(C)C)NC(=O)[C@H](CCCCN)NC(=O)[C@H](CC(C)C)NC(=O)[C@@H](N)CCCCN)C(=O)N[C@@H](CCCCN)C(N)=O [KLKLLLKLK] , what is its reported MIC?
OUT: ≥ 50 µM

IN: Which MIC is listed for NC(=O)[C@H](CCCN=C(N)N)NC(=O)[C@H](CCCN=C(N)N)NC(=O)[C@H](CCCN=C(N)N)NC(=O)[C@@H](N)CCCN=C(N)N [RRRR] ?
OUT: ≥ 100 µM

IN: Data request, read-out MIC, for NCCCC[C@H](NC(=O)[C@H](Cc1c[nH]c2ccccc12)NC(=O)[C@H](CCCCN)NC(=O)[C@H](Cc1c[nH]c2ccccc12)NC(=O)[C@@H](N)CCCCN)C(=O)N[C@@H](Cc1c[nH]c2ccccc12)C(=O)O [KWKWKW]
OUT: ≥ 100 µM

IN: MIC lookup needed for CC(C)C[C@H](NC(=O)[C@H](CCCN=C(N)N)NC(=O)[C@@H](N)CC(C)C)C(=O)N[C@@H](CCCN=C(N)N)C(N)=O [LRLR] , thanks.
OUT: ≥ 100 µM

Alright, here's another compound for you.
IN: Item NC(=O)[C@H](CCCN=C(N)N)NC(=O)[C@H](CCC(=O)O)NC(=O)[C@H](CCCN=C(N)N)NC(=O)[C@@H](N)CCC(=O)O [ERER] has what recorded MIC?
OUT: ≥ 100 µM

###

What follows is a record of MIC for Bacillus subtilis.
Note: state the figure and append the unit.

Sample answers from the record:
IN: Can you look up the measured MIC of CC[C@H](C)[C@H](NC(=O)[C@H](CC(C)C)NC(=O)[C@H](C)NC(=O)[C@H](CO)NC(=O)[C@H](CC(C)C)NC(=O)CN)C(=O)N[C@@H](CO)C(=O)N[C@@H](Cc1c[nH]c2ccccc12)C(=O)N[C@H](C(=O)N[C@@H](CCCCN)C(=O)N[C@@H](CCCN=C(N)N)C(=O)N[C@@H](CCCCN)C(=O)N[C@@H](CCCN=C(N)N)C(=O)N[C@@H](CCC(N)=O)C(=O)N[C@@H](CCC(N)=O)C(N)=O)[C@@H](C)CC [GLSALISWIKRKRQQ] for me?
OUT: 0.897 µM

IN: What MIC value was documented for this compound, CC(C)C[C@H](NC(=O)[C@@H](NC(=O)[C@H](CCCCN)NC(=O)[C@H](CO)NC(=O)[C@H](C)NC(=O)[C@@H](NC(=O)[C@H](CCCCN)NC(=O)[C@H](Cc1ccccc1)NC(=O)[C@H](CC(C)C)NC(=O)[C@H](C)NC(=O)CNC(=O)[C@H](CC(C)C)NC(=O)[C@@H](N)Cc1ccccc1)C(C)C)C(C)C)C(=O)O [FLGALFKVASKVL] ?
OUT: 8.98 µM

Now examine the next entry.
IN: Given CC[C@H](C)[C@H](NC(=O)[C@H](CC(C)C)NC(=O)[C@H](C)NC(=O)[C@@H]1CCCN1C(=O)[C@H](CC(C)C)NC(=O)CN)C(=O)N[C@@H](CO)C(=O)N[C@@H](Cc1c[nH]c2ccccc12)C(=O)N[C@H](C(=O)N[C@@H](CCCCN)C(=O)N[C@@H](CCCN=C(N)N)C(=O)N[C@@H](CCCCN)C(=O)N[C@@H](CCCN=C(N)N)C(N)=O)[C@@H](C)CC [GLPALISWIKRKR] , state its recorded MIC.
OUT: 0.423 µM
